measuredOn: COX-1 (Homo sapiens, UniProt P23219)
Construct: endogenous in cells
Sequence (P23219 24-599): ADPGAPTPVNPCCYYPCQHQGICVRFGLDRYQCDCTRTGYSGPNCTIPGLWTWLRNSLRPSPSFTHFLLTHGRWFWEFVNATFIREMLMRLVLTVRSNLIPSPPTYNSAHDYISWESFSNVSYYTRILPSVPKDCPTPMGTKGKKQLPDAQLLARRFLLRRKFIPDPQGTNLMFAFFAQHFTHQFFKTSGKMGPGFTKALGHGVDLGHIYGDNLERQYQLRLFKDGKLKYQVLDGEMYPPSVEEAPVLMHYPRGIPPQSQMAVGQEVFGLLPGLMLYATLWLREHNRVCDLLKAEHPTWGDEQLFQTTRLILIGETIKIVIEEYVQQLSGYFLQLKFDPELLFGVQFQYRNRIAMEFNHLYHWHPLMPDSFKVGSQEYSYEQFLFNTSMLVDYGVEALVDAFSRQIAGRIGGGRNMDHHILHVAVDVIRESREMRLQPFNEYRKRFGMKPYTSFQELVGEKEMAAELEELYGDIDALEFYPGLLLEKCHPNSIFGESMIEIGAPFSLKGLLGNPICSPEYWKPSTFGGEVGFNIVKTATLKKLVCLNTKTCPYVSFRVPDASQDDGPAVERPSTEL
procedureSummary: Cell-based COX-1 inhibition
conditionNotes: assay/species not specified

molecule	measuredOn	IC50
Cc1cc(C)cc(NC(=O)N2C(=O)C(C(=O)c3cnccn3)c3cc(C)c(F)cc32)c1 (stereo not shown)	COX-1 (Homo sapiens, UniProt P23219)	> 150 µM
